The values you see were collected from the supplement of paper PMC10646978.

# Test system: RAW-Dual (murine macrophage reporter line)
# assay_text: IRF reporter (Lucia luciferase) activity fold change vs agonist alone; higher = enhanced IRF activity
# reported_conditions: modulator concentration 10 µM; agonist: MPLA […]

# molecule, IRF reporter
rows = [
    ("O=C(NCCCOc1cccc2cccnc12)c1cccnc1", 1.25),
    ("O=C(c1ccc(S(=O)(=O)N2CCCC2)cc1)N1CC(Nc2ccncn2)C1", 1.06),
    ("CS(=O)(=O)C1CC2CCC(C1)N2C(=O)c1cccc(Oc2ccc(F)cc2)c1 (configuration not stated)", 1.33),
    ("CS(=O)(=O)N(CC(=O)NCCSCc1cccc(Cl)c1)c1ccc(F)cc1", 0.867),
    ("COc1ccc(NC(=O)Cc2cn(Cc3ccccc3)c3ccccc23)cc1OC", 1.39),
    ("O=C(CSc1ccc2ccccc2n1)NC1=NCCS1", 0.958),
    ("CNC(=O)c1cc(Oc2ccc(NC(=O)Nc3ccc(Cl)c(C(F)(F)F)c3)c(F)c2)ccn1.O", 0.0325),
    ("CCCCSc1nnc2c(n1)OC(c1cccc(F)c1)Nc1ccc(Br)cc1-2 (configuration not stated)", 1.13),
    ("CCCCCCCC(=O)N[C@H](CN1CCCC1)[C@H](O)c1ccc2c(c1)OCCO2", 1.2),
    ("O=C(O)c1cc(NC(=O)c2ccc(Cl)c([N+](=O)[O-])c2)cc(C(=O)O)c1", 1.08),
    ("CC(=O)N1N=C(c2ccc(N(C)C)cc2)CC1c1ccccc1 (configuration not stated)", 1.1),
    ("CC1=NN(C(=O)CCCc2ccccc2)C(O)(c2ccc(Cl)cc2)C1 (configuration not stated)", 1.13),
]

====

Measured IRF reporter, listed per entry for reference.
# System: RAW-Dual (murine macrophage reporter line)
# assay_text: IRF reporter (Lucia luciferase) activity fold change vs agonist alone; higher = enhanced IRF activity
# reported_conditions: modulator concentration 10 µM; agonist: 3'3'-cGAMP 10 ug/mL
assay_endpoint: IRF reporter

# compound, assay_endpoint, experimental_value
rows = [
    ("Cc1cccc(Cn2cc(C=C3SC(=S)NC3=O)c3ccccc32)c1", "IRF reporter", 0.844),
    ("Cc1ccc(OCC(O)CN2CCCCC2)c(C)c1.Cl (stereo not drawn)", "IRF reporter", 0.857),
    ("CC1=NN(C(=O)c2cccnc2)C(O)(c2ccccc2)C1 (stereo not drawn)", "IRF reporter", 0.951),
]

====

# System: RAW-Dual (murine macrophage reporter line)
# assay_text: NF-kB reporter (SEAP) activity fold change vs agonist alone; higher = enhanced NF-kB activity
# reported_conditions: modulator concentration 10 µM; agonist: MPLA […]
Would you mind labelling by NF-kB reporter? At or over 1 is TRUE, under is FALSE.

# compound, class_assignment
measured = [
    ("CC(C)=CCC/C(C)=C/CC/C(C)=C/CSc1ccccc1C(=O)O", "TRUE"),
    ("COc1cc(C=Cc2nc3ccccc3nc2O)cc(OC)c1", "TRUE"),
    ("COC(=O)C1=CN(C2CC2)C=C(C(=O)OC)C1c1ccccc1Cl", "TRUE"),
    ("CN1CC[C@H](c2c(O)cc(O)c3c(=O)cc(-c4ccccc4Cl)oc23)[C@H](O)C1", "FALSE"),
    ("Nc1nc2c(ncn2C2CC(O)C(CO)O2)c(=O)[nH]1 (stereo not given)", "FALSE"),
    ("CCOC(=O)C1=C(C)NC(C)=C(C(=O)OC)C1c1ccc(C)cc1 (stereo not given)", "TRUE"),
    ("Cc1ccc(CN2C3=NCCCN3c3ccccc32)cc1.Cl", "TRUE"),
    ("CCN(CC)CCNC(=O)c1c(C)[nH]c(/C=C2\\C(=O)Nc3ccc(F)cc32)c1C.O=C(O)C[C@H](O)C(=O)O", "FALSE"),
    ("O=C(O)CC(C(=O)O)N1C(=O)C(=C2C(=O)Nc3ccc(Br)cc32)SC1=S (stereo not given)", "FALSE"),
    ("COC(=O)C1=CN(CC2CCCO2)C=C(C(=O)OC)C1c1ccccc1OC (stereo not given)", "TRUE"),
    ("COc1cccc(NC(=O)CN(c2cccc(Br)c2)S(C)(=O)=O)c1", "FALSE"),
    ("O=C(Cn1cnc([N+](=O)[O-])n1)Nc1cc(Oc2cccc(C(F)(F)F)c2)cc([N+](=O)[O-])c1", "FALSE"),
    ("Fc1ccc(CN2CCc3c([nH]c4ccccc34)C2)c(F)c1", "FALSE"),
    ("CN(C)CCNC(=O)C(=O)NC(c1ccccc1)c1ccccc1", "FALSE"),
    ("CCN(CC)c1ccc(C=NNC(=O)c2ccc(O)cc2)c(O)c1", "TRUE"),
    ("O=C(c1cc(C(F)(F)F)cc(C(F)(F)F)c1)N1CCOCC1CO (stereo not given)", "FALSE"),
    ("Cl.O=S(=O)(c1cccc2cnccc12)N1CCCNCC1", "TRUE"),
    ("Brc1ccc2ncnc(N3CCOCC3)c2c1", "TRUE"),
    ("COc1ccc(S(=O)(=O)NCc2cccnc2-c2cnn(C)c2)cc1Cl", "TRUE"),
    ("N[C@H](Cc1ccccc1)C(=O)O", "FALSE"),
    ("Cc1nnc(NN=Cc2ccc(O)c([N+](=O)[O-])c2)[nH]c1=O", "TRUE"),
    ("CN(C)CCCN1c2ccccc2Sc2ccc(Cl)cc21.Cl", "TRUE"),
    ("CC(=O)Nc1ccc(S(=O)(=O)N2CCC(Oc3nc(C)cc(C)n3)C2)cc1 (stereo not given)", "FALSE"),
    ("Cc1nnc(NC(=O)CSc2nc3ccccc3[nH]2)s1", "FALSE"),
    ("O=c1ccc(-c2ccncc2)nn1CC1CCN(CC(F)(F)F)CC1", "FALSE"),
    ("CCN(CCCc1ccccc1)CCCc1ccccc1.O=C(O)CC(O)(CC(=O)O)C(=O)O", "TRUE"),
    ("CCOC(=O)C(CCc1ccccc1)NC(C)C(=O)N1C(C(=O)O)CC2CCCC21 (stereo not given)", "TRUE"),
    ("Cc1cccc(C(=O)N2N=C(C3CCCCC3)CC2(O)C(F)(F)F)c1O (stereo not given)", "FALSE"),
    ("CN1CC(O)C2=C/C(=N/NC(N)=O)C(=O)C=C21 (stereo not given)", "FALSE"),
    ("CN(C)CCC=C1c2ccccc2C=Cc2ccccc21.Cl", "TRUE"),
    ("CCc1ccccc1Nc1nc(-c2sc(NC(C)=O)nc2C)cs1", "FALSE"),
    ("CCCNCC(O)COc1ccccc1C(=O)CCc1ccccc1 (stereo not given)", "TRUE"),
    ("CCn1nc(C)c(S(=O)(=O)N2CC3CC2CS3)c1C (stereo not given)", "FALSE"),
    ("NC(=O)c1cccnc1", "TRUE"),
    ("Cc1ccc2c(c1)C1(c3ccccc3)Nc3ccc(C)cc3C1(c1ccccc1)N2 (stereo not given)", "FALSE"),
    ("O=S(=O)(c1ccccc1)N1CCOCC1", "FALSE"),
]
